The reader will find reported melting point values listed item by item below.
METRIC NAME: melting point

INSERT INTO results (compound_string, reported_value) VALUES
  ('Cc1cc(-c2nncc3c(Br)c(OCc4ncnn4C)nn23)no1', '239 to 241 °C'),
  ('Cc1cc(-c2nncc3c(C(C)(C)C)c(OCc4cccnc4)nn23)no1', '139 to 141 °C'),
  ('Cc1cc(-c2nncc3c(C(C)(C)C)c(OCc4ncn(C)n4)nn23)no1', '161 to 164 °C'),
  ('Cc1cc(-c2nncc3c(C(C)(C)C)c(OCc4ccccn4)nn23)no1', '175 to 178 °C'),
  ('Cc1cc(-c2nncc3c(-c4ccco4)c(OCc4ncnn4C)nn23)no1', '226 to 228 °C'),
  ('Cc1cc(-c2nncc3c(C(C)(C)C)c(OCc4ccncc4)nn23)no1', '119 to 121 °C'),
  ('Cc1cc(-c2nncc3c(-c4ccccc4)c(OCc4ncn(C)n4)nn23)no1', '194 to 196 °C');
